Below: a set of entries, each annotated with reported viability, T/C.
Tested on: 786-0 complex spheroids with HUVEC/MSC, growth % test/control
test.description: Anticancer human tumor 786-0 cell line growth inhibition [AhR];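 note: compound exposure lasted seven days before the read-out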
assay.setup: second compound 0.316 µM; first compound 0.00949 µM; stronger effect = lower value
Description: Multicellular complex tumor spheroid response to aryl hydrocarbon receptor antagonists in combination with a variety of drugs and investigational agents in selected tumor cell lines […] Compounds. […] If the clinical Cmax for an agent had not been determined, the highest concentration tested was 10 microM (Table 1). […]

Here's what some known entries look like.
CC(C)CC(NC(=O)C(Cc1ccccc1)NC(=O)c1cnccn1)B(O)O (stereo unspecified) + Cc1cncc(-c2nc(NCCc3c[nH]c4ccccc34)c3ncn(C(C)C)c3n2)c1 = 118%
CCN(c1cc(-c2ccc(CN3CCOCC3)cc2)cc(C(=O)NCc2c(C)cc(C)[nH]c2=O)c1C)C1CCOCC1 + CC(CO)NC(=O)c1cc(-c2ccc(Cl)cc2)nn(-c2cnn(C)c2)c1=O = 108%
CCN(c1cc(-c2ccc(CN3CCOCC3)cc2)cc(C(=O)NCc2c(C)cc(C)[nH]c2=O)c1C)C1CCOCC1 + Cc1ccccc1N=Nc1ccc(NC(=O)c2ccnn2C)c(C)c1 = 104%
CCc1c2c(nc3ccc(O)cc13)-c1cc3c(c(=O)n1C2)COC(=O)[C@]3(O)CC + CC(CO)NC(=O)c1cc(-c2ccc(Cl)cc2)nn(-c2cnn(C)c2)c1=O = 16.6%
O=C(C=Cn1cnc(-c2cc(C(F)(F)F)cc(C(F)(F)F)c2)n1)NNc1cnccn1 + Cc1cncc(-c2nc(NCCc3c[nH]c4ccccc34)c3ncn(C(C)C)c3n2)c1 = 130%

viability, T/C of O=C(C=Cn1cnc(-c2cc(C(F)(F)F)cc(C(F)(F)F)c2)n1)NNc1cnccn1 + CC(CO)NC(=O)c1cc(-c2ccc(Cl)cc2)nn(-c2cnn(C)c2)c1=O , assay on 786-0 complex spheroids with HUVEC/MSC, growth % test/control, is 111%

Values compiled from PubChem BioAssay AID1919003.
